Catalogue of compounds with associated %Inh
# System: MTOR;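 further: KINOMEscan kinase panel screen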
# TEST_SETTINGS: concentration: 1 μM,replicates: in singlicate; n = 1
MEASURED_ATTRIBUTE: %Inh (%)

{"CPD_SMILES": "Nc1nc(Nc2ccccc2)cc(-c2ccc3c(N)n[nH]c3c2)n1", "MEASURED_ATTRIBUTE": "%Inh", "RECORDED_RESULT": 13}
{"CPD_SMILES": "CC(C)N1C(=O)Cc2cc(Nc3ncc(C(F)(F)F)c(NCc4cccc(S(C)(=O)=O)c4)n3)ccc21", "MEASURED_ATTRIBUTE": "%Inh", "RECORDED_RESULT": 0}
{"CPD_SMILES": "CCN(CC)CCOc1ccc(Nc2ncc3cc(-c4c(Cl)cccc4Cl)c(=O)n(C)c3n2)cc1", "MEASURED_ATTRIBUTE": "%Inh", "RECORDED_RESULT": 43}
{"CPD_SMILES": "O=C(NCCNc1ccnc(NCc2ccc(F)cc2)n1)c1cc2ccccc2s1", "MEASURED_ATTRIBUTE": "%Inh", "RECORDED_RESULT": 1}
{"CPD_SMILES": "Cc1ccc(-n2nc(C(C)(C)C)cc2NC(=O)Nc2ccc(OCCN3CCOCC3)c3ccccc23)cc1", "MEASURED_ATTRIBUTE": "%Inh", "RECORDED_RESULT": 19}
{"CPD_SMILES": "Cc1n[nH]c2ccc(-c3cc(OC[C@@H](N)Cc4ccccc4)cnc3-c3ccoc3)cc12.O=C(O)C(F)(F)F.O=C(O)C(F)(F)F", "MEASURED_ATTRIBUTE": "%Inh", "RECORDED_RESULT": 1}
{"CPD_SMILES": "CCN(CC)CCCCNc1ncc2cc(-c3c(Cl)cccc3Cl)c(NC(=O)NC(C)(C)C)nc2n1", "MEASURED_ATTRIBUTE": "%Inh", "RECORDED_RESULT": 39}
{"CPD_SMILES": "CN(C)CCOc1ccc(-c2cc(-c3c[nH]nc3-c3ccccn3)ccn2)cc1", "MEASURED_ATTRIBUTE": "%Inh", "RECORDED_RESULT": 0}
